conditions: Liquid; pulse heating

{"COMPOUND": "CCCCCCCCCC[O][Ti]([O]CCCCCCCCCC)([O]CCCCCCCCCC)[O]CCCCCCCCCC", "Critical temperature, K": 882}
{"COMPOUND": "CCCCCCC[O][Ti]([O]CCCCCCC)([O]CCCCCCC)[O]CCCCCCC", "Critical temperature, K": 808}
{"COMPOUND": "CCCCC[O][Ti]([O]CCCCC)([O]CCCCC)[O]CCCCC", "Critical temperature, K": 751}
{"COMPOUND": "CCCCCC[O][Ti]([O]CCCCCC)([O]CCCCCC)[O]CCCCCC", "Critical temperature, K": 780}
{"COMPOUND": "CCCCCCCCC[O][Ti]([O]CCCCCCCCC)([O]CCCCCCCCC)[O]CCCCCCCCC", "Critical temperature, K": 855}
{"COMPOUND": "CC[O-].CC[O-].CC[O-].CC[O-].[Ti+4]", "Critical temperature, K": 647}
{"COMPOUND": "CCCC[O-].CCCC[O-].CCCC[O-].CCCC[O-].[Ti+4] [titanium(IV) butan-1-olate]", "Critical temperature, K": 719}
{"COMPOUND": "CCC[O-].CCC[O-].CCC[O-].CCC[O-].[Ti+4]", "Critical temperature, K": 685}
{"COMPOUND": "CCCCCCCC[O][Ti]([O]CCCCCCCC)([O]CCCCCCCC)[O]CCCCCCCC", "Critical temperature, K": 831}
